Taken from the RNAGym collection of RNA variant scans (doi:10.1126/science.aae0568).

Readings of yeast fitness for the listed variants
B1: tRNA (parent)
chain: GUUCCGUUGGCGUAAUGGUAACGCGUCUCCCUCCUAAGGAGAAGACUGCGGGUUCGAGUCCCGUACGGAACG

Variants of: B1
Experiment: yeast fitness relative to wild type (ratio to wild type); higher = fitter; tRNA-Arg(CCU), competitive growth, 37 C, YPD
Variants at the floor of the assay were thinned out.

Return value of yeast fitness for input C5U A14U A21G A65C , no commentary. ≤ 0.5

Return value of yeast fitness for input U2C C4A G17A C60G , no commentary. ≤ 0.5
